Tested on: KB
Test: Cytotoxicity against human KB cells after 4 hrs by MTT assay
Format: functional
Conditions: read-out: ED50 (the source's name)
For each entry below, report its EC50 value.

Task item: Lab note: KB assay, enter EC50 for C[C@@H]1CC(=O)[C@@]23[C@@H](C)C(C(=O)O)=C[C@]2(C)CC[C@@H]13 here
Reply: > 10 µg/mL

Task item: Lab note: KB assay, enter EC50 for CC(=O)O[C@H]1C[C@H](C)[C@H]2CC[C@]3(C)C=C(C(=O)O)[C@@H](C)[C@]123 here
Reply: > 10 µg/mL

Task item: Lab note: KB assay, enter EC50 for COC(=O)C1=C[C@@]2(C)CC[C@@H]3[C@@H](C)C[C@H](OC(C)=O)[C@@]32[C@@H]1C here
Reply: > 10 µg/mL

Task item: Lab note: KB assay, enter EC50 for COC(=O)C1=C[C@@]2(C)CC[C@@H]3[C@@H](C)CC(=O)[C@@]32[C@@H]1C here
Reply: 4.3 µg/mL

Task item: Lab note: KB assay, enter EC50 for C[C@@H]1C(C(=O)O)=C[C@@]2(C)CC[C@@H]3[C@@H](C)C[C@H](O)[C@@]132 here
Reply: > 10 µg/mL

Task item: Lab note: KB assay, enter EC50 for C[C@@H]1C(CO)=C[C@@]2(C)CC[C@@H]3[C@@H](C)CC[C@@]132 here
Reply: > 10 µg/mL

From: ChEMBL document CHEMBL1150117
